Task for the reader: assign each of the following binders its reported A549/TARC IL13 IC50.
# Test System: human IL13 (human, UniProt P35225 35-146, biotinylated in the SPR assays (sites not given))
# Sequence (P35225 other isoform, or with tags, fused parts or gaps limits assumed): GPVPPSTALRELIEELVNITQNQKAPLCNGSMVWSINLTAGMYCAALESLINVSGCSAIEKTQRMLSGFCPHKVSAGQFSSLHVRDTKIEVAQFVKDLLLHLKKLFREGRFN
# Protocol Details: cell-based or functional assay

Binder	Recorded Value
C01_6G9_V1_C06_28E5_V1 (designed binder, bispecific IL13/IL4 ankyrin repeat protein with (GGGGS)4 linker; also called bispecific AR protein) DLDKKLLEAARAGQDDEVRILMANGADVNARDSYGSTPLHLAAREGHLEIVEVLLKYGADVNAADFIGDTPLHLAAYRGHLEIVEVLLKYGADVNASDITGETPLHLAAQIGHLEIVEVLLKHGADVNAQDKFGKTAFDISIDNGNEDLAEILQKLGGGGSGGGGSGGGGSGGGGSRSDLGKKLLEAARAGQDDEVRILMANGADVNAADDSGITPLHLAAEDGHLEIVEVLLKAGADVNAQDNLGDTPLHLAAWTGHLEIVEVLLKAGADVNAYDISGITPLHLAAFYGHLEIVEVLLKHGADVNAQDKFGKTAFDISIDNGNEDLAEILQKLN	0.092 nM
C01_6G9_V1_C06_53G6_V1 (designed binder, bispecific IL13/IL4 ankyrin repeat protein with (GGGGS)4 linker; also called bispecific AR protein) DLDKKLLEAARAGQDDEVRILMANGADVNARDSYGSTPLHLAAREGHLEIVEVLLKYGADVNAADFIGDTPLHLAAYRGHLEIVEVLLKYGADVNASDITGETPLHLAAQIGHLEIVEVLLKHGADVNAQDKFGKTAFDISIDNGNEDLAEILQKLNGGGGSGGGGSGGGGSGGGGSDLGKKLLEAARAGQDDEVRILMANGADVNATDDWGDTLLHLAATDGHLEIVEVLLKAGADVNANDAIGDTPLHLAALYGHLEIVEVLLKYGADVNATDLHGFTPLHLAAFWGHLEIVEVLLKHGADVNAQDKFGKTAFDISIDNGNEDLAEILQKLN	0.075 nM
C01_6G9_V1_C06_44C12_V2 (designed binder, bispecific IL13/IL4 ankyrin repeat protein with (GGGGS)4 linker; also called bispecific AR protein) DLDKKLLEAARAGQDDEVRILMANGADVNARDSYGSTPLHLAAREGHLEIVEVLLKYGADVNAADFIGDTPLHLAAYRGHLEIVEVLLKYGADVNASDITGETPLHLAAQIGHLEIVEVLLKHGADVNAQDKFGKTAFDISIDNGNEDLAEILQKLNGGGGSGGGGSGGGGSGGGGSDLGKKLLEAASAGQDDEVHILMANGADVNALDDSGYTPLHLAAEDGHLEIVEVLLKHGADVNAADRLGDTPLHLAAFVGHLEIVEVLLKAGADVNAVDLAGVTPLHVAAFYGHLEIVEVLLKAGADVNAQDKFGKTAFDISIDNGNEDLAEILQKLN	0.128 nM

Next binder, please.
Ask | Give A549/TARC IL13 IC50 for the following binder: C06_44C12_V2_C01_6G9_V1 (designed binder, bispecific IL4/IL13 ankyrin repeat protein with (GGGGS)4 linker; also called bispecific AR protein) DLGKKLLEAASAGQDDEVHILMANGADVNALDDSGYTPLHLAAEDGHLEIVEVLLKHGADVNAADRLGDTPLHLAAFVGHLEIVEVLLKAGADVNAVDLAGVTPLHVAAFYGHLEIVEVLLKAGADVNAQDKFGKTAFDISIDNGNEDLAEILQKLNGGGGSGGGGSGGGGSGGGGSDLDKKLLEAARAGQDDEVRILMANGADVNARDSYGSTPLHLAAREGHLEIVEVLLKYGADVNAADFIGDTPLHLAAYRGHLEIVEVLLKYGADVNASDITGETPLHLAAQIGHLEIVEVLLKHGADVNAQDKFGKTAFDISIDNGNEDLAEILQKLN
Reply | 0.063 nM
